Test system: TK-10 renal
Assay: NCI tumour cell line growth inhibition, 48 h
Parameter: TGI. Scope: all listed entries.

Recorded TGI, per entry:
- compound: "O=C(c1ccccc1)c1c(-c2ccccc2)n(-c2ccccc2)[nH]c(=O)c1=O"
  quantity: "TGI"
  experimental.result: "> 100 µM"
- compound: "O=C(/C=C/c1ccccc1Cl)NC1C=Nc2ccc([N+](=O)[O-])cc2NC1 (stereo not given)"
  quantity: "TGI"
  experimental.result: "> 100 µM"
- compound: "CCCCCCCCCCCCC/C=C/[C@@H](O)[C@H](COC1OC(CO)C(OC2OC(CO)C(O)C(OC3(C(=O)O)CC(O)C(NC(C)=O)C(C(O)C(O)CO)O3)C2O)C(O)C1O)N=[N+]=[N-] (stereo not given in full)"
  quantity: "TGI"
  experimental.result: "> 100 µM"
- compound: "Cc1cccc(C)c1NC(=O)C(=O)C(C(=O)c1ccccc1-c1ccccc1)C1OC(=O)c2ccccc21 (stereo not given)"
  quantity: "TGI"
  experimental.result: "53.7 µM"
- compound: "CCCCCOc1ccc(/C=N/Nc2cc(C)nc3ccc(Br)cc23)cc1"
  quantity: "TGI"
  experimental.result: "3.42 µM"
- compound: "O=C(O)CC(NC(=O)CP(=O)(O)O)C(=O)O (stereo not given)"
  quantity: "TGI"
  experimental.result: "> 10000 µM"

query: Write TGI of CC(C)(S)C(N)C(=O)O (stereo not given) ; system used: TK-10 renal
result: > 5000 µM

###

System: MOLT-4 leukemia
Assay: NCI tumour cell line growth inhibition, 48 h
quantity: TGI

- compound: "COc1ccc(/C(Cl)=C(\\C=O)c2ccc(OC)c(OC)c2)cc1"
  test.system: "MOLT-4 leukemia"
  TGI: "> 100 µM"
- compound: "C#CC(C)(C)OC(=O)C(=[N+]=[N-])C(C)=O"
  test.system: "MOLT-4 leukemia"
  TGI: "> 10 µM"
- compound: "COC(=O)c1ccccc1Nc1nc(-c2cccs2)nc2cc(OC)c(OC)cc12"
  test.system: "MOLT-4 leukemia"
  TGI: "> 100 µM"
- compound: "N#CC1=C(Nc2ccccc2)SC=C(c2ccccc2)NC1=NCc1ccccc1"
  test.system: "MOLT-4 leukemia"
  TGI: "> 100 µM"

query: Fill: TGI (MOLT-4 leukemia) for this compound CCN(Cc1ccccc1C)c1ccc(CO)c(Cl)c1
result: 39.2 µM

query: Report value: TGI, system: MOLT-4 leukemia, compound: O=Cc1ccc2c(c1-c1c(C=O)ccc3c1OCO3)OCO2
result: > 100 µM

query: Provide TGI, system MOLT-4 leukemia, entry Cc1cc2c(cc1C)C(=O)C1(C2)Cc2c(C)ccc(C)c2C1=O (stereo unspecified)
result: > 100 µM

query: Determine reported TGI for O=C(Oc1ccccc1)N1c2ccccc2[C@@]23O[C@]24CCC[C@H]3C#C/C=C\C#C[C@H]14 ; test system: MOLT-4 leukemia.
result: > 100 µM

query: Give reported TGI for OCCCNc1nccc(-c2c(-c3ccc(F)cc3)nn3cc(C(F)(F)F)ccc23)n1 (MOLT-4 leukemia)
result: > 25 µM

query: Write down measured TGI (MOLT-4 leukemia) for this compound. COC(=O)[C@@H](C)C[C@H](Cc1ccccc1)NC(=O)c1csc([C@@H](C[C@H](C(C)C)N(C)C(=O)[C@@H](NC(=O)[C@H]2CCCCN2C)C2CCCCC2)OC(C)=O)n1
result: 4.87 µM

query: Please indicate recorded TGI of O=S1(=O)Cc2ccc3c4c2-c2c(ccc5ccc(c-4c25)CS(=O)(=O)C3)C1 measured with MOLT-4 leukemia.
result: > 100 µM

query: Give MOLT-4 leukemia TGI for the following compound: CN(C)CCNC(=O)c1ccc2nc3c(nc2c1)C(=O)c1ccccc1-3
result: 52.6 µM

query: Find TGI for O=C(O)CC(NC(=O)CP(=O)(O)O)C(=O)O (stereo unspecified) on MOLT-4 leukemia and write it down.
result: 6910 µM

query: Give TGI; test system MOLT-4 leukemia; compound Nc1nc(Cl)c(N)c(NCC2(CO)CCCC2)n1
result: > 100 µM

###

Test system: RPMI-8226 leukemia
Test: NCI tumour cell line growth inhibition, 48 h
quantity: TGI

Some solved entries appear below for comparison.
- compound: "COc1ccc(O)c(C(=O)c2ccc(C(=O)N[C@H]3CCCNC[C@@H]3NC(=O)c3ccncc3)cc2)c1F"
  TGI: "> 25 µM"
- compound: "Cc1c(/C=N/NC(=O)c2ccc(Cl)cc2)c(=O)n(-c2ccccc2)n1C"
  TGI: "> 100 µM"
- compound: "C/C(=N/NC(=S)Nc1ccc(Cl)cc1)c1cccc(/C(C)=N\\NC(=S)Nc2ccc(Cl)cc2)n1"
  TGI: "39.7 µM"
- compound: "COc1cc2c(c(OC)c1OC)-c1ncc3cc4c(cc3c1C2)OCO4"
  TGI: "> 100 µM"
- compound: "COc1ccc(-c2nc(-c3cc4c(ccc5ccccc54)oc3=O)cs2)cc1"
  TGI: "> 100 µM"

query: Provide measured TGI value, entry: CC(=O)N(CCc1ccccc1)C(C#N)c1ccccc1 (stereo unspecified)
result: > 100 µM

query: Give TGI for O=C(CCc1cc(O)ccc1O)OCCc1ccccc1
result: > 23.2 µM

query: Input NCCSc1nc(-c2ccccc2)c(-c2ccccc2)o1 , output reported TGI.
result: > 100 µM

query: # return recorded TGI for input COc1cc2c(OC)cc1CSCc1sc(C)c(c1Br)CSC2
result: > 100 µM

query: Fill in reported TGI for this entry: COc1ccc2c(c1)nc1n2C(c2c(Cl)cccc2Cl)SC1 (stereo unspecified)
result: > 100 µM

query: Name the recorded TGI of the compound listed here: CNS(=O)(=O)NNS(=O)(=O)c1ccc(Br)cc1
result: > 100 µM

query: Give the reported TGI for this compound. CCCCCOc1ccc(/C=N/Nc2cc(C)nc3ccc(Br)cc23)cc1
result: 4.17 µM

query: Quote TGI reported for COc1ccc(C2OC(N)=C(C#N)C3=C2CCCC3C)cc1OC (stereo unspecified) please.
result: > 100 µM

query: Write down TGI measured for item C=C1C(=O)OC2CC(C)C3(O)CCC(=O)C3(C)CC12 (stereo unspecified)
result: 43.1 µM

query: Hello, please tell me recorded TGI for this one: N#CC1=C(Nc2ccccc2)SC=C(c2ccccc2)NC1=NCc1ccccc1
result: > 100 µM

query: Report measured TGI; entry is COc1ccc2c(c1)C(=O)OCCC2
result: > 100 µM

query: Determine from records and report TGI for CC(=O)O/C(=C1\C[C@H]2[C@@H]3CC=C4C[C@@H](OC(C)=O)CC[C@]4(C)[C@H]3CC[C@]2(C)C1=O)C(F)(F)F
result: 15.8 µM

###

TGI values by entry
Test system: UO-31 renal
Test: NCI tumour cell line growth inhibition, 48 h

- compound: "COc1c(OC(C)=O)c(OC(C)=O)cc2c1-c1ccc(SC)c(=O)cc1C(NC(C)=O)CC2 (stereo unspecified)"
  TGI: "> 100 µM"

query: Provide measured TGI value, entry: COc1cc(OC)c(/C=C/c2c3ccccc3cc[n+]2C)c(OC)c1
result: > 100 µM

query: Consider the compound N#CC(C(=O)C(=O)Nc1ccc(Cl)cc1)c1ccccc1 (stereo unspecified) . State its measured TGI.
result: > 100 µM

query: Tell me TGI reported for COC(=O)c1c(C#N)[nH]c(-c2ccsc2)c1C(=O)OC
result: > 100 µM

query: Output measured TGI for this item: CC(=O)O[C@H]1CC[C@@]2(C)C(=CC[C@@H]3[C@@H]2CC[C@]2(C)NC(=O)/C(=C\c4ccccc4)C[C@@H]32)C1
result: 33.1 µM

query: Report measured TGI; entry is COC1=CC2C(c3cc4ccccc4n3S(=O)(=O)c3ccccc3)CC1CN2C(=O)OCc1ccccc1 (stereo unspecified)
result: > 100 µM

query: State its TGI for this compound: O=C(O)c1ccc(OCc2ccccc2)c(Cl)c1
result: > 100 µM

###

Tested on: A549 NSCLC
Test: NCI tumour cell line growth inhibition, 48 h
quantity: TGI

Use the examples below as a reference point.
- compound: "CCCCCCOc1ccc(Nc2c(O)c3c(c(O)c2Cl)C(=O)C=CC3=O)cc1"
  TGI: "> 10 µM"
- compound: "O=C(Oc1ccccc1)N1c2ccccc2[C@@]23O[C@]24CCC[C@H]3C#C/C=C\\C#C[C@H]14"
  TGI: "25 µM"
- compound: "COc1c[c]([Hg][O]C(C)=O)c(OC)c(NC(=O)CC(C)=O)[c]1[Hg][O]C(C)=O"
  TGI: "45.9 µM"
- compound: "COC(=O)/C=C/c1c(CC=C(C)C)ncn1C"
  TGI: "> 100 µM"
- compound: "CC(C)C(=O)NS(=O)(=O)c1ccccc1"
  TGI: "> 100 µM"

query: Output reported TGI of the compound Cn1cc(C2=C(c3cccc(Br)c3)C(=O)NC2=O)c2ccccc21 on A549 NSCLC.
result: > 25 µM

query: Please look at COc1ccc(CC2c3cc(OC)c(OC)cc3CC[N+]2(C)C)cc1OC (stereo not given) and tell me its recorded TGI on A549 NSCLC.
result: > 100 µM

query: // output TGI; input COc1cc(OC)c(/C=C/c2c3ccccc3cc[n+]2C)c(OC)c1 ; system A549 NSCLC
result: > 100 µM

query: State the measured TGI (A549 NSCLC) of CC(C(=O)OCc1ccccc1)(c1ccco1)N1C(=O)OC(c2ccccc2)C1c1ccccc1 (stereo not given)
result: > 100 µM

query: For A549 NSCLC, give TGI of the listed compound: COC(=O)c1c(C#N)[nH]c(-c2ccsc2)c1C(=O)OC
result: > 100 µM
